The entries below are paired with their reported IC50.
SUBJECT OF TEST: STING (Homo sapiens)
Sequence (Q86WV6 whole entry): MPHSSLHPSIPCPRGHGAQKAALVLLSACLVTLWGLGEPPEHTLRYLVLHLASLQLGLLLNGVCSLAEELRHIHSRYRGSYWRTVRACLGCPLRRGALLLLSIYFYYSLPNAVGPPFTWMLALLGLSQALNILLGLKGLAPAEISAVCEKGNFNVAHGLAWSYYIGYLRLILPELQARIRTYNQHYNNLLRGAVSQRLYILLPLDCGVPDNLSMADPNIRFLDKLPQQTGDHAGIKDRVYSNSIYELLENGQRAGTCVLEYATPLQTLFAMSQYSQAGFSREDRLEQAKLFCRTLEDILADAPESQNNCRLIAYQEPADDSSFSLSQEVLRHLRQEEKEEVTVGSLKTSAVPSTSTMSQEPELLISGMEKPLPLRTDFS
ASSAY NOTES: STING antagonist activity, cell-based ISG54 promoter-reporter luciferase measurement of IRF activity (THP-1 dual / RAW-ISG cells)
EXPERIMENTAL SETUP: Antagonist Activity of Exemplary Compounds; cell line and agonist not given; read-out: IC50

// known answers, use as guide
>>> experimental_value("Cc1nc2nc(Cl)nc([S+]([O-])C(C)C)c2n1CCCCCCCCCCN1CCOCC1 (centres unmarked)")
"1 to 1000 nM"
>>> experimental_value("Clc1nc(Cl)c2c(ncn2CCCCn2cnc3nc(Cl)nc(Cl)c32)n1")
"5000 to 10000 nM"
>>> experimental_value("COC(=O)CCCCCCCCCn1c(C)nc2nc(Cl)nc(S(=O)(=O)C(C)C)c21")
"1000 to 5000 nM"
>>> experimental_value("Cc1nc2nc(Cl)nc(Cl)c2n1CCCCCCCCCCn1c(C)nc2nc(Cl)nc(Cl)c21")
"1 to 1000 nM"
>>> experimental_value("COC(=O)C(C)(C)n1cnc2nc(Cl)nc(Cl)c21")
"> 20000 nM"
>>> experimental_value("COC(=O)CCCCCCCCCCn1cnc2nc(Cl)nc(Cl)c21")
"1 to 1000 nM"
>>> experimental_value("Cc1nc2nc(Cl)nc(Cl)c2n1CCCCCCCCCCCCCCCc1nnnn1C")
"1 to 1000 nM"

The recorded IC50 for entry Cc1nc2nc(Cl)nc(S(=O)(=O)C(C)C)c2n1CCCCCCCCCCCCCCCc1noc(=O)n1C equals 1 to 1000 nM

Source listed as patent US20220168309A1.
